# PROCEDURE DETAILS: Individual predicted steady-state exposures
# Type: in vivo, human
# TEST SETTINGS: human, plasma, oral, 60 mg, AUC24, Median (5th to 95th percentile), PROGRESS CM, 60 mg QD
VALUE KIND: AUC (ng·h/mL)
Respond numerically; units are ng·h/mL and should not be typed.

Query (molecule): C[C@@H]1[C@H](c2c(F)ccc(F)c2F)C[C@H](NC(=O)c2cnc3c(c2)C[C@@]2(C3)C(=O)Nc3ncccc32)C(=O)N1CC(F)(F)F [atogepant, Atogepant] ; field requested: AUC
2900

----------
# PROCEDURE DETAILS: Individual predicted steady-state exposures
# Assay type: in vivo, human
# TEST SETTINGS: human, plasma, oral, 60 mg, Cmax, Mean (SD), CGP-MD-01 EM, 60 mg QD
VALUE KIND: Cmax (ng/mL)
Please state the figure in ng/mL; there is no need to write the unit.

Return reported Cmax; argument: C[C@@H]1[C@H](c2c(F)ccc(F)c2F)C[C@H](NC(=O)c2cnc3c(c2)C[C@@]2(C3)C(=O)Nc3ncccc32)C(=O)N1CC(F)(F)F
545
